# System: 786-0 renal
# procedure text: NCI-60 one-dose screen, 48 h (100 = growth as untreated, 0 = no growth, -100 = all killed)
# measurement conditions: 10 µM unless noted
The panel holds about 83,000 compounds, 20% with a hit somewhere; the sample as a whole holds those more often. Activity calls are given as the source filed them. The calls were made as follows: active = growth percent below 10; inactive = the rest.
In this section we review reported growth values for a set of molecules.

Example entries begin here.
molecule: CC[N+](CC)(CCOCCOCC[N+](CC)(CC)Cc1ccc([N+](=O)[O-])cc1)Cc1ccc([N+](=O)[O-])cc1
observed value: 109% (inactive)
--
molecule: CCCCN(CCCC)CCCOC(=O)c1ccc(N)cc1
observed value: 95.4% (inactive)
--
molecule: Cc1cc(C(C)(C)C)cc(C)c1CC1=NCCN1
observed value: 96.9% (inactive)
--
molecule: CC(C)C(=O)Cc1cnccn1
observed value: 109% (inactive)

stdin: # return recorded growth for input O=C1C(Cl)=C(N=Nc2c(Cl)c(O)c3ccccc3c2O)C(=O)c2ccccc21
stdout: 98.4% (inactive)

stdin: # return recorded growth for input C=CC1=C(C(=O)O)N2C(=O)[C@@H](NC(=O)/C(=N\O)c3csc(N)n3)[C@H]2SC1 (stereo in doubt)
stdout: 105% (inactive)

stdin: # return recorded growth for input Cn1c(=O)c2nc(SCc3ccccc3)n(C)c2n(C)c1=O
stdout: 109% (inactive)

###

# System: SF-539 CNS
# procedure text: NCI-60 one-dose screen, 48 h (100 = growth as untreated, 0 = no growth, -100 = all killed)
# measurement conditions: 10 µM unless noted
The panel holds about 83,000 compounds, 20% with a hit somewhere; the sample as a whole holds those more often. Activity calls are given as the source filed them. Rule for the calls: active = growth percent below 10; inactive = the rest.
value type: growth

chemical smiles: O=C(OC[C@H]1O[C@H](OC(=O)c2cc(O)c(O)c(OC(=O)c3cc(O)c(O)c(O)c3)c2)[C@H](OC(=O)c2cc(O)c(O)c(OC(=O)c3cc(O)c(O)c(O)c3)c2)[C@@H](OC(=O)c2cc(O)c(O)c(OC(=O)c3cc(O)c(O)c(O)c3)c2)[C@@H]1OC(=O)c1cc(O)c(O)c(OC(=O)c2cc(O)c(O)c(O)c2)c1)c1cc(O)c(O)c(OC(=O)c2cc(O)c(O)c(O)c2)c1
growth: 29.3% (inactive)

stdin: Name the recorded growth of N#Cc1cnc2cc(OC[C@H](O)CO)c(NC(=O)CC3CSSC3)cc2c1Nc1ccc(OCc2cccc(F)c2)c(Cl)c1 , assay system SF-539 CNS.
stdout: -85.8% (active)

stdin: Name the recorded growth of Cc1cc(C)n2nc(SCC(=O)Nc3sc4c(c3C(N)=O)CCC4)nc2n1 , assay system SF-539 CNS.
stdout: 90.8% (inactive)

###

# Tested on: HOP-62 NSCLC
# procedure text: NCI-60 one-dose screen, 48 h
# measurement conditions: 10 µM unless noted
This is part of a sample that, as a whole, favours compounds with a hit. Of some 83,000 tested, about 20% had one in any assay. Calls of active or inactive are those of the source. Rule for the calls: active = growth percent below 10; inactive = the rest.
// allowed return values: active, inactive

compound: O=C(Nc1ccc(Cl)cc1Cl)Nc1ccc(-c2cccnc2)cc1N1CCC(CO)CC1
assay system: HOP-62 NSCLC
assigned label: inactive
--
compound: O=C(c1ccccc1)c1ccccc1Cl
assay system: HOP-62 NSCLC
assigned label: inactive
--
compound: CC1=C(C(=O)Nc2ccccc2)C(c2ccc3c(c2)OCCO3)NC(=O)N1 (stereo not given)
assay system: HOP-62 NSCLC
assigned label: inactive
--
compound: CCOc1cc(C(C)(C)C)ccc1C1=N[C@H](c2ccc(Cl)cc2)[C@H](c2ccc(Cl)cc2)N1C(=O)N1CCN(CC#Cc2cccc3c2CN([C@@H]2CCC(=O)NC2=O)C3=O)CC1
assay system: HOP-62 NSCLC
assigned label: inactive
--
compound: COc1cc(OC)c2cc(C(=O)O)c(=O)oc2c1
assay system: HOP-62 NSCLC
assigned label: inactive
--
compound: NC(=O)NN=C(C1CC1)C1CC1
assay system: HOP-62 NSCLC
assigned label: inactive
--
compound: Cn1cc(-c2csc(-c3c[nH]c4ncccc34)n2)c2cc(Br)cnc21
assay system: HOP-62 NSCLC
assigned label: active
--
compound: O=C(CSc1nnc(Nc2ccccc2)s1)NCCc1ccc(F)cc1
assay system: HOP-62 NSCLC
assigned label: inactive

Now consider the entry below.
stdin: GET /call?item= O=C(Nc1ccccc1Cl)c1cnc2ccc(C3CCNCC3)cn12 returns the recorded outcome of this test.
stdout: inactive
